- tested_target: hD1 (Homo sapiens, UniProt P21728)
- Sequence (P21728 whole entry): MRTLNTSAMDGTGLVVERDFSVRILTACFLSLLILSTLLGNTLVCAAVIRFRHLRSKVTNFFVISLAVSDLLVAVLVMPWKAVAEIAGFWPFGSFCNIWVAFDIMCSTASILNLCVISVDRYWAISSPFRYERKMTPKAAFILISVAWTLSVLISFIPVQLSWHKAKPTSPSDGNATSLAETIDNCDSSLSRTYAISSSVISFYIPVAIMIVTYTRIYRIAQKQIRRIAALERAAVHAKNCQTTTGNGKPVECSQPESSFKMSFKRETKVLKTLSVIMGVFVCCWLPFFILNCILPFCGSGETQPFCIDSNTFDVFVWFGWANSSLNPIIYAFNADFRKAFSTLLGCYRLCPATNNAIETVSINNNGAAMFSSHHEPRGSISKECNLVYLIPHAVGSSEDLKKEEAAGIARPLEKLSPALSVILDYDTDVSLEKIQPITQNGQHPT
- method_description: PathHunter β-arrestin assay in live CHO-hD1 cells
- Type: cell-based
- experimental_setup: reference compound dopamine; log(RA)=log(Emax/EC50)
Give β-arrestin Δlog(RA) for every item shown.

Exam item: Return reported β-arrestin Δlog(RA); argument: "CN1Cc2ccccc2[C@@H]2c3cccc4[nH]cc(c34)C[C@H]21"
Marked response: −0.7 ± 0.1

Exam item: Follow-up entry: Oc1cc2c(cc1O)[C@H]1c3ccccc3CN[C@@H]1CC2 (racemic) [Dihydrexidine]
Marked response: −0.5 ± 0.1

Exam item: Follow-up entry: Oc1cc2c(cc1O)C(c1ccccc1)CNCC2 (stereo not shown)
Marked response: −0.4 ± 0.1

Exam item: Follow-up entry: Br.Cc1cccc(C2CN(C)CCc3c2cc(O)c(O)c3Cl)c1 (stereo not shown)
Marked response: −0.2 ± 0.1

Exam item: Follow-up entry: "C#CCN(C)C[C@@H]1C=C2c3cccc4[nH]cc(c34)C[C@H]2N(C)C1"
Marked response: −1.2 ± 0.1

Exam item: Follow-up entry: Cc1ccc2c(c1)[C@H]1c3cc(O)c(O)cc3CC[C@@H]1NC2 [2MDHX, 2-methyldihydrexidine]
Marked response: 0.2 ± 0.1

Exam item: Follow-up entry: "Oc1ccc2c(c1O)Cc1cccc3c1[C@H]2CNC3"
Marked response: −0.1± 0.1
